Cited source: the RNAGym collection of RNA variant scans (doi:10.1093/molbev/msab373)

B1: Azoarcus group I ribozyme (parent)
chain: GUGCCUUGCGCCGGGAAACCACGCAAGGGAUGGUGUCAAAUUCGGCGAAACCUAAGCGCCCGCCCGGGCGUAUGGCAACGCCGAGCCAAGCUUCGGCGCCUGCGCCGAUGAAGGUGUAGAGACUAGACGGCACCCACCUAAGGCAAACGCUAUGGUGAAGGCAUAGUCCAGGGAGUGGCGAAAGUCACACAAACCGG

Variants of: B1
experimental_details: reverse-splicing fitness (ratio to wild type); higher = more active; in vitro selection; Mg2+ level not given
Category scheme (reverse-splicing fitness): bottom end = under 0.007, midrange = from 0.007 up to 0.01, top end = 0.01 and over

mutant_designation	category
C82A A111G A120U C169G U176A	bottom end
C82G A120C A145U C150G C169A U176G	bottom end
C82G A111G A120U A145U C169A U176G	bottom end
C82A A111G A120C A145G C169G U176A	top end
C82U A111G A120G A145C C150A C169G U176A	top end

IN: Which band does C82G A111U C169G U176C fall in?
OUT: top end

IN: Consider C82A A120U A145C C150G C169U U176G . To which reverse-splicing fitness class does it belong?
OUT: bottom end

IN: Class for C82G A111U A120U A145U C169G U176A ?
OUT: bottom end

IN: Assign a bin to C82A A111C A145C C150G C169G U176C
OUT: midrange

IN: Given C82G A111C C150G C169U , name the class its reverse-splicing fitness places it in.
OUT: midrange

IN: Class (by measured reverse-splicing fitness) for C82G A145U C150U U176C
OUT: top end

IN: Exam item: assign C82G A111G A145C C150G C169U to the correct category.
OUT: midrange

IN: State the class of the variant shown: C82A A111G A120U A145C C150A C169U
OUT: bottom end

IN: Which reverse-splicing fitness category applies to C82G A111U A120U A145C C150A C169U U176G here?
OUT: bottom end

IN: Could you tell me which band C82A A111G A145C C150U C169G belongs to?
OUT: midrange
